Each recorded value in this set is attributed to ChEMBL document CHEMBL3244346.

Tested on: Rattus norvegicus
Run Description: Non-specific toxicity in ip dosed Wistar rat assessed as inhibition of d-amphetamine sulfate-induced stereotypy administered 1 hr prior to d-amphetamine sulfate challenge measured after 55 to 65 mins
Type: organism-based
Recorded Conditions: in vivo
Doc: threshold 7 mg/kg (exclusive). Items with ED50 beneath it return yes (1); others return no (0).

# example entries with known answers
| Compound | Answer Label |
| --- | --- |
| O=C(CCCN1CCC2(CC1)OC(c1ccc(F)cc1)c1ccccc12)c1ccc(F)cc1 (stereo not given) | no (0) |
| CN(C)CCCN1c2ccccc2Sc2ccc(Cl)cc21 | yes (1) |
| CSc1ccc2c(c1)N(CCC1CCCCN1C)c1ccccc1S2 (stereo not given) | no (0) |

Here is another compound to look at.
Problem: Check if ED50 falls below 7 mg/kg for `O=C(CCCN1CCC(O)(c2ccc(Cl)cc2)CC1)c1ccc(F)cc1` .
Solution: yes (1)

* * *

// ED50 lookup, one value per entry
System: Canis familiaris
Run Description: Non-specific toxicity in po dosed Beagle dog assessed as inhibition of apomorphine hydrochloride-induced emesis
Assay type: organism-based, Canis lupus familiaris
Recorded Conditions: in vivo
# output: bare number, implied unit mg/kg

Example entries and their recorded answers appear below.
| Compound | ED50 [mg/kg] |
| --- | --- |
| COc1ccc(C2OC3(CCN(CCCC(=O)c4ccc(F)cc4)CC3)c3ccccc32)cc1 (centres undefined) | 0.16 |
| CN(C)CCCN1c2ccccc2Sc2ccc(Cl)cc21 [CHLORPROMAZINE] | 12.8 |
| O=C(CCCN1CCC(O)(c2ccc(Cl)cc2)CC1)c1ccc(F)cc1 [HALOPERIDOL] | 0.06 |
| O=C(CCCN1CCC2(CC1)OC(c1ccccc1)c1ccc(F)cc12)c1ccc(F)cc1 (centres undefined) | 0.047 |
| O=C(CCCN1CCC2(CC1)OC(c1ccccc1)c1ccccc12)c1ccc(F)cc1 (centres undefined) | 0.15 |

Next compound, please.
Problem: Report ED50 for O=C(CCCN1CCC2(CC1)OC(c1ccccc1)c1ccc(Cl)cc12)c1ccc(F)cc1 (centres undefined) please.
Solution: 0.05

* * *

System: Rattus norvegicus
Run Description: Non-specific toxicity in ip dosed Wistar rat assessed as inhibition of amphetamine-induced circling administered 60 mins prior to amphetamine challenge
Type: organism-based
Recorded Conditions: in vivo, 1 h
Parameter Measured: ED50
Note: a bare number is incomplete; add the unit.

| Compound | ED50 |
| --- | --- |
| CSc1ccc2c(c1)N(CCC1CCCCN1C)c1ccccc1S2 (stereo not given) | 13.3 mg/kg |
| CN(C)CCCN1c2ccccc2Sc2ccc(Cl)cc21 | 2.2 mg/kg |
| O=C(CCCN1CCC(O)(c2ccc(Cl)cc2)CC1)c1ccc(F)cc1 | 0.1 mg/kg |
| O=C(CCCN1CCC2(CC1)OC(c1ccccc1)c1ccccc12)c1ccc(F)cc1 (stereo not given) | 2.6 mg/kg |
| O=C(CCCN1CCC2(CC1)OC(c1ccc(F)cc1)c1ccc(F)cc12)c1ccc(F)cc1 (stereo not given) | 9.7 mg/kg |
| COc1ccc2c(c1)C(c1ccccc1)OC21CCN(CCCC(=O)c2ccc(F)cc2)CC1 (stereo not given) | 9.9 mg/kg |

Problem: Report ED50 for O=C(CCCN1CCC2(CC1)OC(c1ccccc1)c1ccc(Cl)cc12)c1ccc(F)cc1 (stereo not given) please.
Solution: 3.5 mg/kg

Problem: Also check COc1ccc(C2OC3(CCN(CCCC(=O)c4ccc(F)cc4)CC3)c3ccccc32)cc1 (stereo not given)
Solution: 10.2 mg/kg

Problem: Also check O=C(CCCN1CCC2(CC1)OC(c1ccccc1)c1ccc(F)cc12)c1ccc(F)cc1 (stereo not given)
Solution: 4.6 mg/kg

Problem: Also check O=C(CCCN1CCC2(CC1)OC(c1ccc(F)cc1)c1ccccc12)c1ccc(F)cc1 (stereo not given)
Solution: 11.9 mg/kg

* * *

// ED50 lookup, one value per entry
Tested on: Canis familiaris
Run Description: Non-specific toxicity in po dosed Beagle dog assessed as inhibition of apomorphine hydrochloride-induced emesis
Type: organism-based, Canis lupus familiaris
Recorded Conditions: in vivo

| Compound | ED50 |
| --- | --- |
| COc1ccc2c(c1)C(c1ccccc1)OC21CCN(CCCC(=O)c2ccc(F)cc2)CC1 (stereo not drawn) | > 1 mg/kg |
| O=C(CCCN1CCC2(CC1)OC(c1ccc(F)cc1)c1ccccc12)c1ccc(F)cc1 (stereo not drawn) | > 5 mg/kg |

Next compound, please.
Problem: Report ED50 for O=C(CCCN1CCC2(CC1)OC(c1ccc(Cl)cc1)c1ccccc12)c1ccc(F)cc1 (stereo not drawn) please.
Solution: > 10 mg/kg
